# target or test system: Zinc finger protein mex-5 (Caenorhabditis elegans, UniProt Q9XUB2)
# assay explanation: MEX-5/TCR-2 RNA interaction inhibitors, dose response, biochemical, C. elegans, fluorescence polarization (AID 1960)
pEC50: −log10 of the molar value.
Label TRUE when pEC50 >= 5; otherwise FALSE.

CCn1nc(C)c(C=C2CCCC3=C2OC(=N)C(C#N)C3c2c(C)nn(CC)c2C)c1C (stereo not given)	FALSE
O=[N+]([O-])c1cc([CH+][N-]n2c(O)csc2=S)ccc1Cl	FALSE
C(=NNC(=Nc1ccccc1)c1ccccn1)c1ccccn1	FALSE

Inquiry: # check: pEC50 of "COc1ccc(OC)c(N2C(=O)NC(=O)C(=Cc3c[nH]c4ccccc34)C2=O)c1" is greater than or equal to 5
Reply text: FALSE

Inquiry: # check: pEC50 of "Cc1ccc(C(=O)Cc2nc3cc(C)ccc3oc2=O)cc1" is greater than or equal to 5
Reply text: TRUE

Inquiry: # check: pEC50 of CCOc1cccc(C2C(C(=O)c3ccc(C)o3)C(=O)C(=O)N2c2nccs2)c1 (stereo not given) is greater than or equal to 5
Reply text: TRUE

Inquiry: # check: pEC50 of "CN(C)CCCNC=C1C(=O)NC(=O)N(CCc2ccc(F)cc2)C1=O" is greater than or equal to 5
Reply text: FALSE

Inquiry: # check: pEC50 of "O=C(CC=Nc1ccc([N+](=O)[O-])cc1)c1ccc(Br)cc1" is greater than or equal to 5
Reply text: FALSE

Inquiry: # check: pEC50 of "C=CCN1C(=O)NC(=O)C(=CCC=Nc2ccccc2)C1=O" is greater than or equal to 5
Reply text: FALSE

Inquiry: # check: pEC50 of "O=C1C=C(NNC(=O)c2sc3ccccc3c2Cl)CCC1" is greater than or equal to 5
Reply text: FALSE

----------
Documented pEC50 across a set of molecules
# target or test system: Zinc finger protein mex-5 (Caenorhabditis elegans, UniProt Q9XUB2)
# assay explanation: MEX-5/TCR-2 RNA interaction inhibitors, dose response, biochemical, C. elegans, fluorescence polarization (AID 1960)
# reply with the number alone; pEC50 is -log10 of concentration in mol/L

Some solved cases for reference:
C=CCSc1nnc(N2C(=O)C(=O)C(C(=O)c3ccco3)C2c2ccc(F)cc2)s1 (stereo unspecified)	4.06
C=c1[nH]n(-c2cccc(C(=O)O)c2)c(=O)c1=CC=Cc1ccco1	4.62
O=C1N=c2ccccc2=C1NNc1cccc(Cl)c1	4.34
Cc1cc(CN=Nc2ccc([N+](=O)[O-])cn2)c(C)n1-c1cccc(C(=O)O)c1	4.42
C=CCOc1cccc(C2C(C(=O)c3ccc(C)o3)C(=O)C(=O)N2c2nccs2)c1 (stereo unspecified)	6.07
COc1ccc(C2CC(c3ccc(Br)s3)=Nc3ncnn32)cc1OC (stereo unspecified)	5.20

Inquiry: Please look up its pEC50: "COc1ccc(N=C(C)c2sc3ccccc3c2O)cc1"
Reply text: 4.75

Inquiry: Please look up its pEC50: "C/N=c1\ccc2nc3ccccc3n(C)c-2c1"
Reply text: 4.83

Inquiry: Please look up its pEC50: Cc1cc(N2C(=O)C(=O)C(C(=O)c3cc4ccccc4o3)C2c2ccc([N+](=O)[O-])cc2)no1 (stereo unspecified)
Reply text: 4.34

Inquiry: Please look up its pEC50: Cc1n[nH]c(C)c1Sc1ccccc1/N=C/C1C=C(Cl)C=C([N+](=O)[O-])C1=O (stereo unspecified)
Reply text: 5.12

Inquiry: Please look up its pEC50: "O=C1N=C(N2C=CC(c3ccncc3)C=C2)C(=CN=NC(=O)c2ccccc2O)S1"
Reply text: 4.97

----------
# target or test system: UniProt:Q9XUB2
# Sequence (Q9XUB2 whole entry): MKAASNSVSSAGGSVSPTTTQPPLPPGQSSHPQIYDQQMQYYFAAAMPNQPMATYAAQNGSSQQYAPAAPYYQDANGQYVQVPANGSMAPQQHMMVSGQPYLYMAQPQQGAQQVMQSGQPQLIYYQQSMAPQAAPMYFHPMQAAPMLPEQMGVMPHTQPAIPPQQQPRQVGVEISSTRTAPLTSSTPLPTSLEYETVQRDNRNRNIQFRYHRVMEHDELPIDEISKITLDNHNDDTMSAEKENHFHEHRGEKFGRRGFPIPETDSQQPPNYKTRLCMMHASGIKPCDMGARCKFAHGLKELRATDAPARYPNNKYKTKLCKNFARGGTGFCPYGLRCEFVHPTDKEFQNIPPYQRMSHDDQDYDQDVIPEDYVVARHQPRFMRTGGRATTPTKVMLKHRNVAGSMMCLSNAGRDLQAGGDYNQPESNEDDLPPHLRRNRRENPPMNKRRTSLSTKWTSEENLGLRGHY
# assay explanation: MEX-5/TCR-2 RNA interaction inhibitors, dose response, biochemical, C. elegans, fluorescence polarization (AID 1960)
measurement name: EC50 (µM)
Record the value in µM, omitting the unit from your answer.

Some solved cases for reference:
COc1ccc(C2C(C(=O)c3ccco3)C(=O)C(=O)N2c2nnc(C)s2)cc1 (stereo not given)	216
COc1ccc(OC)c(N2C(=O)C(=Cc3ccco3)C(=O)NC2=S)c1	10.8
Cn1c(=O)[nH]c(=O)c2c1nc(N=NC=C(Br)Cc1ccccc1)n2CCO	55.5
Cc1cc(C=NNC(=O)c2cccc(N(C)C)c2)c(C)n1-c1cc(C(=O)O)cc(C(=O)O)c1	143
O=C(NN=CC1=CC(=O)C(=O)CC1)NN=CC1=CC(=O)C(=O)CC1	4.86

Now examine the next entry.
Inquiry: Please look up its EC50: "COC(=O)Cn1cc(C=C2C(=O)NC(=O)N(c3ccccc3)C2=O)c2ccccc21"
Reply text: 143

----------
Documented EC50 across a set of compounds
# target or test system: Zinc finger protein mex-5 (Caenorhabditis elegans, UniProt Q9XUB2)
# assay explanation: MEX-5/TCR-2 RNA interaction inhibitors, dose response, biochemical, C. elegans, fluorescence polarization (AID 1960)

Some solved cases for reference:
O=C1N=C(O)C(C2=c3cc([N+](=O)[O-])ccc3=NC2=O)S1 (stereo unspecified)	21.5 µM
O=C(CC(=O)c1ccccc1)C(=O)NNC(=O)c1ccccc1[N+](=O)[O-]	1.11 µM
Cc1nnc(SC(=Cc2ccc(-c3ccc(Cl)cc3)o2)C(=O)O)[nH]1	29.6 µM
CCOC(=O)C1C(=O)C(=Cc2cn(CC(=O)N3CCCC3)c3ccccc23)S/C1=N\c1ccccc1 (stereo unspecified)	26.2 µM
CSc1nnc(N2C(=O)C(=O)C(C(=O)c3ccco3)C2c2ccccc2)s1 (stereo unspecified)	76.6 µM

Inquiry: Please look up its EC50: O=C1Nc2ccccc2C1=NNc1ccccc1 [3-(phenylhydrazo)-2-indolone]
Reply text: 18.3 µM

Inquiry: Please look up its EC50: "Cc1ccc(Cl)c2c1=NC(=O)C=2NNc1ccccc1"
Reply text: > 300 µM

Inquiry: Please look up its EC50: COc1cccc(C2C3CN(C)CCC3=C(C#N)C(=N)C2(C#N)C#N)c1OC (stereo unspecified)
Reply text: 8.49 µM

Inquiry: Please look up its EC50: CN1CCC2=C(C#N)C(=N)C(C#N)(C#N)C(c3ccncc3)C2C1 (stereo unspecified)
Reply text: 7.73 µM

Inquiry: Please look up its EC50: CCCCOc1cccc(C2C(C(=O)c3ccc(C)o3)C(=O)C(=O)N2c2nnc(C)s2)c1 (stereo unspecified)
Reply text: 77.4 µM

Inquiry: Please look up its EC50: Clc1ccc(C2=Nc3ncnn3C(c3ccco3)C2)cc1 (stereo unspecified)
Reply text: 3.36 µM

Inquiry: Please look up its EC50: "Cc1c(C(=O)O)cccc1-n1c(C)cc(CN=Nc2ccc([N+](=O)[O-])cn2)c1C"
Reply text: 50.2 µM

Inquiry: Please look up its EC50: "O=C1NC(=O)N(CCc2ccccc2)C(=O)C1=CNCCCn1ccnc1"
Reply text: > 300 µM

----------
# target or test system: UniProtKB Q9XUB2
# assay explanation: MEX-5/TCR-2 RNA interaction inhibitors, dose response, biochemical, C. elegans, fluorescence polarization (AID 1960)
measurement name: EC50

N#CC1C(=N)OC2=C(C(=O)CC(c3ccco3)C2)C1c1ccc(OCc2c(F)cccc2Cl)cc1 (configuration not stated)	> 300 µM
CCCCCCN1C(=O)C(=CNc2ccccc2N2CCOCC2)C(=O)NC1=S	> 300 µM
CCN(CC)c1ccc(NC=C2C(=O)NC(=O)N(Cc3ccccc3)C2=O)cc1	> 300 µM
CCN(CC)CCN1C(=O)C(=O)C(C(=O)c2cc3cccc(OC)c3o2)C1c1ccc(F)cc1 (configuration not stated)	> 300 µM
Cc1ccc(C(=O)C2C(=O)C(=O)N(Cc3ccco3)C2c2ccc(N(C)C)cc2)o1 (configuration not stated)	> 300 µM
COc1ccc(NC=C2C(=O)NC(=S)N(Cc3ccccc3)C2=O)c(OC)c1	> 300 µM

Inquiry: Given the entry CC1(C)CC(=O)C2=C(C1)OC(=N)C(C#N)C2c1cccc(OC(=O)c2ccco2)c1 (configuration not stated) , what EC50 was observed with UniProtKB Q9XUB2?
Reply text: > 300 µM

Inquiry: Given the entry N#CC1C(=N)OC2=C(C(=O)CCC2)C1c1ccccc1 (configuration not stated) , what EC50 was observed with UniProtKB Q9XUB2?
Reply text: > 300 µM

Inquiry: Given the entry "Cc1ccc(N=CCC(=O)c2sc(-c3ccccc3)nc2C)cc1" , what EC50 was observed with UniProtKB Q9XUB2?
Reply text: > 300 µM

Inquiry: Given the entry N#CC1C(=N)OC2=C(C(=O)CCC2)C1c1ccc2c(c1)OCO2 (configuration not stated) , what EC50 was observed with UniProtKB Q9XUB2?
Reply text: > 300 µM

Inquiry: Given the entry "COc1ccccc1N1C(=O)NC(=O)C(=Cc2c[nH]c3ccccc23)C1=O" , what EC50 was observed with UniProtKB Q9XUB2?
Reply text: > 300 µM

Inquiry: Given the entry "O=C(O)COc1ccc(C=Cc2nnc(-c3ccccc3O)[nH]2)cc1" , what EC50 was observed with UniProtKB Q9XUB2?
Reply text: 0.945 µM

Inquiry: Given the entry "CN(C)c1ccc(N=Cc2nc(-c3ccccc3)oc2O)cc1" , what EC50 was observed with UniProtKB Q9XUB2?
Reply text: 5.22 µM

Inquiry: Given the entry "COc1cc(S(=O)(=O)Nc2ccc(C)cc2)ccc1NC=C1C(=O)N(C)C(=O)C(C#N)=C1C" , what EC50 was observed with UniProtKB Q9XUB2?
Reply text: 23.9 µM

Inquiry: Given the entry CC1(C)CC(=O)C2=C(C1)OC(=N)C(C#N)C2c1ccc(OC(=O)N2CCOCC2)cc1 (configuration not stated) , what EC50 was observed with UniProtKB Q9XUB2?
Reply text: > 300 µM

Inquiry: Given the entry "O=C1NC(=O)N(c2ccc(F)cc2)C(=O)C1=Cc1c[nH]c2ccccc12" , what EC50 was observed with UniProtKB Q9XUB2?
Reply text: > 300 µM

Inquiry: Given the entry "Cc1ccc(NC=C2SC(=O)c3ccccc32)c(C)c1" , what EC50 was observed with UniProtKB Q9XUB2?
Reply text: > 300 µM

Inquiry: Given the entry "O=C(O)c1ccc(NN=CC2=C(N3CCOCC3)C(=Cc3ccccc3)CC2)cc1" , what EC50 was observed with UniProtKB Q9XUB2?
Reply text: 109 µM

Inquiry: Given the entry "Cc1c(NC=C2C(=O)N(C)C(=O)c3ccccc32)c(=O)n(-c2ccccc2)n1C" , what EC50 was observed with UniProtKB Q9XUB2?
Reply text: > 300 µM

Inquiry: Given the entry "CC(=O)N=c1c(C#N)cc2c(=O)n3cccc(C)c3nc2n1CCCOC(C)C" , what EC50 was observed with UniProtKB Q9XUB2?
Reply text: 229 µM

Inquiry: Given the entry "CCCCN1C(=O)/C(=C2/Sc3ccccc3N2C)SC1=Nc1nnc[nH]1" , what EC50 was observed with UniProtKB Q9XUB2?
Reply text: 39.1 µM

Inquiry: Given the entry COc1ccc(C2C(C(C)=O)=C(C)N=c3sc(=Cc4cc(C)n(C)c4C)c(=O)n32)c(OC)c1 (configuration not stated) , what EC50 was observed with UniProtKB Q9XUB2?
Reply text: 21 µM
